Test system: HeLa
Experiment: Antiproliferative activity against human HeLa cells assessed as reduction in cell growth at 2 uM incubated for 72 hrs by CCK-8 assay relative to control
Assay type: functional
Threshold rule: inhibition at 2 µM greater than or equal to 30% is label 1; below that, label 0.

The following molecules have reported results that may help.
CCn1c(SCc2ccc(/C=C/C(=O)Nc3ccccc3N)cc2)nc2cc(OC)ccc2c1=O	label 0
CCCCn1c(SCc2ccc(/C=C/C(=O)Nc3ccccc3N)cc2)nc2cc(F)ccc2c1=O	label 0
Cc1ccc2c(=O)n(C)c(SCc3ccc(/C=C/C(=O)Nc4ccccc4N)cc3)nc2c1	label 0
Cc1cccc2nc(SCc3ccc(C(=O)Nc4ccccc4N)cc3)n(C)c(=O)c12	label 1
Nc1ccc(F)cc1NC(=O)c1ccc(CNC(=O)/C=C/c2cccnc2)cc1	label 0
COc1ccc2c(=O)n(-c3cccc(Cl)c3)c(SCC(=O)Nc3ccccc3N)nc2c1	label 0
Cn1c(SCc2ccc(/C=C/C(=O)Nc3ccccc3N)cc2)nc2cc(F)ccc2c1=O	label 0
CCn1c(SCC(=O)Nc2ccccc2N)nc2cc(Cl)ccc2c1=O	label 1

(Q) Can Cc1ccc2nc(SCc3ccc(C(=O)Nc4ccccc4N)cc3)n(C)c(=O)c2c1 be said to have inhibition at 2 µM at or above 30%?
(A) label 1

====

Tested on: HeLa
Test: Antiproliferative activity against human HeLa cells assessed as reduction in cell growth at 2 uM incubated for 72 hrs by CCK-8 assay relative to control
Assay type: functional
READOUT TYPE: inhibition at 2 µM (%)
Field format: number, assumed %, no unit text.

Use these answered entries as a reference point.
CCn1c(SCc2ccc(C(=O)Nc3ccccc3N)cc2)nc2cc(F)ccc2c1=O	25.7
Cc1cccc2c(=O)n(C)c(SCc3ccc(C(=O)Nc4ccccc4N)cc3)nc12	47.3
COc1ccc2c(=O)n(CCCC[S+](C)[O-])c(SCc3ccc(/C=C/C(=O)Nc4ccccc4N)cc3)nc2c1 (centres undefined)	1.1
Cc1ccc2nc(SCc3ccc(/C=C/C(=O)Nc4ccccc4N)cc3)n(C)c(=O)c2c1	25.5
CCn1c(SCc2ccc(C(=O)Nc3ccccc3N)cc2)nc2cc(Br)ccc2c1=O	30.4
COc1ccc2c(=O)n(-c3ccccc3C)c(SCc3ccc(C(=O)Nc4ccccc4N)cc3)nc2c1	23.6
COc1ccc2c(=O)n(CC/C=C/[S+](C)[O-])c(SCc3ccc(C(=O)Nc4ccccc4N)cc3)nc2c1 (centres undefined)	35.8
CCn1c(SCc2ccc(C(=O)Nc3ccccc3N)cc2)nc2cc(Cl)ccc2c1=O	39.1

Attention now turns to another entry.
(Q) Query the reported inhibition at 2 µM for HeLa; item: CCn1c(SCc2ccc(C(=O)Nc3ccccc3N)cc2)nc2cc(OC)ccc2c1=O
(A) 42.1

====

System: SMMC-7721
Assay: Antiproliferative activity against human SMMC7721 cells assessed as reduction in cell growth at 8 uM incubated for 72 hrs by CCK-8 assay relative to control
Format: functional
Conditions: SMMC-7721, 72 h
Below is a list of entries, each paired with its recorded inhibition at 8 µM value.
The answer is to be given in %; state only the numeric part.

Guide cases for inhibition at 8 µM, answers given:
CCn1c(SCc2ccc(C(=O)Nc3cc(F)ccc3N)cc2)nc2cc(OC)ccc2c1=O	61.4
Cc1cccc2nc(SCc3ccc(/C=C/C(=O)Nc4ccccc4N)cc3)n(C)c(=O)c12	52.3
Nc1ccc(F)cc1NC(=O)c1ccc(CNC(=O)/C=C/c2cccnc2)cc1	58.9

(Q) Return reported inhibition at 8 µM; argument: CC(=O)Nc1ccc(C(=O)Nc2ccccc2N)cc1 [TACEDINALINE]
(A) 29.1

(Q) Next up: Cn1c(SCc2ccc(C(=O)Nc3ccccc3N)cc2)nc2cc(F)ccc2c1=O
(A) 75.1
